GI50 listing for selected compounds.
test system: SK-MEL-28 melanoma; experiment: NCI tumour cell line growth inhibition, 48 h

See these solved cases before continuing.
>>> assay_result("CC(C)C[C@@H](N)[C@@H](O)C(=O)N[C@H](C(=O)N[C@H](C(=O)N[C@@H](CC(=O)O)C(=O)O)C(C)C)C(C)C")
"> 20 µM"
>>> assay_result("O=c1c(Cc2ccc3c(c2)OCO3)nnc2sc(-c3cc(F)c(Cl)cc3Cl)nn12")
"32.2 µM"
>>> assay_result("COc1ccc(-n2cc(-c3ccc(OC)c(OC)c3)[nH]c2=O)cc1")
"> 100 µM"
>>> assay_result("COc1ccc2c(c1)C(=O)c1c-2c(OCCCN(C)C)nc2cc(Br)ccc12")
"1.87 µM"
>>> assay_result("Cc1cccc(N2C(=O)/C(=C/C(Cl)=C/c3ccc([N+](=O)[O-])cc3)SC2=S)c1C")
"2.37 µM"
>>> assay_result("CSc1nc(Nc2cccc(NC(=O)CCl)c2)c(C#N)c(-c2cccc([N+](=O)[O-])c2)n1")
"2.15 µM"
>>> assay_result("CC(C)(C)C[C@H]1N[C@@H](C(=O)NC2CCC(O)CC2)[C@H](c2cccc(Cl)c2F)[C@@]12C(=O)Nc1cc(Cl)ccc12 (stereo partly drawn)")
"3.28 µM"

Moving on to the next compound.
input: // returns reported GI50 for input `CN(C)CCC(=O)Nc1ccc(-n2cc(-c3cccc(NC(=S)Nc4cccc(-c5cn(-c6ccc(NC(=O)CCN(C)C)cc6)nn5)c4)c3)nn2)cc1`
output: 24.5 µM

Numbers sourced from PubChem BioAssay (NCI).
